Data credit: the supplement of paper PMC13386468

target: UniProt C6KT82; experiment: IC50 for competition of protein binding to Kinobeads; conditions: assay detail: Kinobeads competition in P. falciparum blood-stage lysate
pIC50: −log10 of the molar value.

- compound: "O=c1[nH]c2ccc(Cl)cc2c(NC2CN3CCC2CC3)c1-c1nc2ccccc2[nH]1 (stereo unspecified)"
  pIC50: "< 4.70"

---

molecular target: UniProt O77344; assay: apparent dissociation constant (Kd app) from Kinobeads competition; conditions: assay detail: Kinobeads competition in P. falciparum blood-stage lysate
observable: Kd (nM)

- compound: "O=c1[nH]c2ccc(Cl)cc2c(NC2CN3CCC2CC3)c1-c1nc2ccccc2[nH]1 (stereo unspecified)"
  observable: "Kd"
  unit.text: "nM"
  result: 1280

---

biological target: UniProt C0H516; assay: IC50 for competition of protein binding to Kinobeads; conditions: assay detail: Kinobeads competition in P. falciparum blood-stage lysate

- compound: "O=c1[nH]c2ccc(Cl)cc2c(NC2CN3CCC2CC3)c1-c1nc2ccccc2[nH]1 (stereo unspecified)"
  IC50: "> 20 µM"

---

target: UniProt Q8I463; assay: IC50 for competition of protein binding to Kinobeads; settings: assay detail: Kinobeads competition in P. falciparum blood-stage lysate
pIC50: −log10 of the molar value.
observable: pIC50

- compound: "O=c1[nH]c2ccc(Cl)cc2c(NC2CN3CCC2CC3)c1-c1nc2ccccc2[nH]1 (stereo unspecified)"
  target.under.test: "UniProt Q8I463"
  result: "< 4.70"

---

biological target: UniProt C6KSZ6; test: apparent dissociation constant (Kd app) from Kinobeads competition; details: assay detail: Kinobeads competition in P. falciparum blood-stage lysate
pKd: −log10 of the molar value.

- molecule: "O=c1[nH]c2ccc(Cl)cc2c(NC2CN3CCC2CC3)c1-c1nc2ccccc2[nH]1 (stereo unspecified) [CHIR-124]"
  pKd: 5.85

---

target: UniProt Q8IKK7; assay: IC50 for competition of protein binding to Kinobeads; settings: assay detail: Kinobeads competition in P. falciparum blood-stage lysate
observable: IC50

- compound: "O=c1[nH]c2ccc(Cl)cc2c(NC2CN3CCC2CC3)c1-c1nc2ccccc2[nH]1 (stereo unspecified)"
  result: "> 20 µM"

---

biological target: UniProt Q8I2F2; experiment: IC50 for competition of protein binding to Kinobeads; details: assay detail: Kinobeads competition in P. falciparum blood-stage lysate
pIC50: −log10 of the molar value.
observable: pIC50

- compound: "O=c1[nH]c2ccc(Cl)cc2c(NC2CN3CCC2CC3)c1-c1nc2ccccc2[nH]1 (stereo unspecified) [CHIR-124]"
  target.under.test: "UniProt Q8I2F2"
  observable: "pIC50"
  result: "< 4.70"

---

target: UniProt Q8IDZ9; assay: IC50 for competition of protein binding to Kinobeads; conditions: assay detail: Kinobeads competition in P. falciparum blood-stage lysate

- compound: "O=c1[nH]c2ccc(Cl)cc2c(NC2CN3CCC2CC3)c1-c1nc2ccccc2[nH]1 (stereo unspecified)"
  IC50: "> 20 µM"

---

molecular target: UniProt Q8I5E3; experiment: apparent dissociation constant (Kd app) from Kinobeads competition; conditions: assay detail: Kinobeads competition in P. falciparum blood-stage lysate
observable: Kd (µM)

- compound: "O=c1[nH]c2ccc(Cl)cc2c(NC2CN3CCC2CC3)c1-c1nc2ccccc2[nH]1 (stereo unspecified)"
  observable: "Kd"
  result: 7.57
